- Target Of Assay: T1, TgSlyDΔIF
- T1 construct: negative control scaffold without insert (Thermococcus gammatolerans SlyD); also called TgSlyDAIF
- T1 chain: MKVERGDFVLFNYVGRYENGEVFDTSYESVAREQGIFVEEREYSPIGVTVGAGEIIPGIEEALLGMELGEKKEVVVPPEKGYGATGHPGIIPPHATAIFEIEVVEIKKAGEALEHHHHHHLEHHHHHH
- Method Summary: ELISA, antigen coated, hybridoma supernatant
- Experimental: For the ELISA screening an antigen down format was used. […] Hybridoma Supernatant was added to the plates and incubated for 1 h at room temperature. Bound antibody was detected with a HRP-labeled F(ab′)₂ goat anti-mouse Fcγ (Dianova) and ABTS (Roche) was used as a HRP-substrate. As negative controls the scaffold proteins TtSlyDcas and TgSlyDΔIF were used.
Hi! Just check whether OD 405 nm is below 0.03 OD. Below gives y, equal or above gives n.

>>> classification("anti-HER3 antibody M-43-01 (antibody, V domains shown, mouse hybridoma clone) VH: EVQLQQSGTVLARPGASVKMSCKASDYTFSNYWVHWVKQRPGQGLEWIGAIYPGNGDSTYYQKFKGKATLTAVTSTSTAYMDLSSLTNGDSAVYFCTRSGVGYNYYFDYWGQGTTLTVSS VL: DIQMTQSPASLSASVGETVTITCRASENIYSNLAWYQQKQGKSPQLLVYIATNLADGVPSRFSGSGSGTQFSLKINSLQPEDLGSYYCQHFYGTPFTFGTGTKLEIE")
"n"
>>> classification("anti-HER3 antibody M-17-02 (antibody, V domains shown, mouse hybridoma clone) VH: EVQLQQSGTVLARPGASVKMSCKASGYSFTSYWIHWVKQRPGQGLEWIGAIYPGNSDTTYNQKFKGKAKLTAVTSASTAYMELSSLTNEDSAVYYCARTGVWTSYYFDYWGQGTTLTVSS VL: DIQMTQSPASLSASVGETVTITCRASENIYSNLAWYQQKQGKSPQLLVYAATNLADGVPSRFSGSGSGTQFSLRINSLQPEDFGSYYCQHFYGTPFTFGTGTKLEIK")
"y"
>>> classification("anti-HER3 antibody M-17-12 (antibody, V domains shown, mouse hybridoma clone; VH and VL stated identical to those of M-17-02) VH: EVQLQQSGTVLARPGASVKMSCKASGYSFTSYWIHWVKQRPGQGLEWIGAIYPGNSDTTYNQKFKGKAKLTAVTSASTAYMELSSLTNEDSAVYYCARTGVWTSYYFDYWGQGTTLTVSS VL: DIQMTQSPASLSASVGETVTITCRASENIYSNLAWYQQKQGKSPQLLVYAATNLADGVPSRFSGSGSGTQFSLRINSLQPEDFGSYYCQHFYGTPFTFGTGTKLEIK")
"y"
>>> classification("anti-HER3 antibody M-08-11 (antibody, V domains shown, mouse monoclonal antibody from hybridoma, tested as hybridoma supernatant or as antibody; also called M-011) VH: QAYLQQSGAELMRPGASVRMSCQASGYTFTSYTIHWLKQTPRQGLEWIGAIYPRNGDFSYNQKFKDKASLTVDTSSSTAYMHLSSLTSEDSAVYFCARTINYGDWFAYWGQGTLVTVSA VL: DIQMIQSPASLFVSEGETVIITCRASENIYSNLAWYHQKKGKSPQVLVYAAIKLADGVPLRFSGSGSGTQFSLKINSLQSEDFGSYYCQHFWGPPYTFGSGTNLEIK")
"n"
>>> classification("anti-HER3 antibody M-17-07 (antibody, V domains shown, mouse hybridoma clone) VH: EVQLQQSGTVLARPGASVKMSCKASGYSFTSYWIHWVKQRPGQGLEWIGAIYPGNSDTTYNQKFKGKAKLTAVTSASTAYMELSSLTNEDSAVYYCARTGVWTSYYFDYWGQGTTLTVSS VL: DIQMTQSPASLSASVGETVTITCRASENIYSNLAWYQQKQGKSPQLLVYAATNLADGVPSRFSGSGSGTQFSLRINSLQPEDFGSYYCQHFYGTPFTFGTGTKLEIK")
"y"
